- experiment.notes: chemical genetic growth profiling, strain panel (AID 1159580);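 also: tested at 20 µM; growth read once vehicle control cultures reached saturation at 30 °C; 1 = growth at the plate median or of vehicle wells; lower values mean less growth of the strain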
- measurement.setup: S. cerevisiae deletion strains, growth OD, locus YOR265W, strain rbl2, stronger effect = lower value
Screen size: about 5,500 compounds; about 2,000 (36%) were called active. About 18% were inconclusive and are not listed. Some of the results follow.
result.type: normalized growth

Some molecules with known normalized growth results, for comparison:
molecule	normalized growth
COc1ccc(-c2cc(=O)c3c(O)c(OC)c(OC)c(OC)c3o2)cc1	0.983 (inactive)
CC(=O)O[C@@H]1CC2C(C)(C)CCC(=O)[C@]2(C)C2CC[C@@]3(C)[C@H](c4ccoc4)OC(=O)C4OC43[C@@]21C (stereo partly specified)	0.996 (inactive)

The reported normalized growth of the molecule O=C1CCc2cc(OCCCCc3nnnn3C3CCCCC3)ccc2N1 was 0.987 (inactive)

Sample COc1cc([C@@H]2c3cc4c(cc3[C@H](O)[C@H]3COC(=O)[C@@H]23)OCO4)cc(OC)c1OC ; normalized growth observed: 1.02 (inactive)

For CC[C@]12C=CCN3CC[C@@]4(c5ccc(OC)cc5N(C)C4[C@@](O)(C(=O)OC)[C@@H]1OC(C)=O)[C@@H]32 (stereo partly specified) the molecule record lists normalized growth as 1.01 (inactive)

The molecule listed as COc1ccc(-c2cc(=O)c3ccccc3o2)cc1 has a reported normalized growth of 0.879 (active)

Noted for CC(=O)O.CC(=O)O.[Cd] : its normalized growth reads 0.769 (active)

Where do the numbers come from? From PubChem BioAssay AID1159580.
